Where these numbers come from: patent US6331555A

Test: in vivo
Conditions: mouse, ip

{"columns": ["Smiles Notation", "Units Of Measure", "LD50"],
 "data": [
  ["Cc1oncc1C(=O)Nc1ccc(C(F)(F)F)cc1", "mg/kg", 145]
]}

* * *

Tested on: SF767T cells
Experiment: Soft agar assay (SAA)
Format: cell-based
Details: Homo sapiens; PDGF-R expression ++

{"columns": ["Smiles Notation", "Target Or Test System", "IC50"],
 "data": [
  ["Cc1oncc1C(=O)Nc1ccc(C(F)(F)F)cc1", "SF767T cells", "500 to 2000 nM"]
]}

* * *

Biological target: PDGFR (Homo sapiens, UniProt P09619)
Sequence (P09619 33-1106): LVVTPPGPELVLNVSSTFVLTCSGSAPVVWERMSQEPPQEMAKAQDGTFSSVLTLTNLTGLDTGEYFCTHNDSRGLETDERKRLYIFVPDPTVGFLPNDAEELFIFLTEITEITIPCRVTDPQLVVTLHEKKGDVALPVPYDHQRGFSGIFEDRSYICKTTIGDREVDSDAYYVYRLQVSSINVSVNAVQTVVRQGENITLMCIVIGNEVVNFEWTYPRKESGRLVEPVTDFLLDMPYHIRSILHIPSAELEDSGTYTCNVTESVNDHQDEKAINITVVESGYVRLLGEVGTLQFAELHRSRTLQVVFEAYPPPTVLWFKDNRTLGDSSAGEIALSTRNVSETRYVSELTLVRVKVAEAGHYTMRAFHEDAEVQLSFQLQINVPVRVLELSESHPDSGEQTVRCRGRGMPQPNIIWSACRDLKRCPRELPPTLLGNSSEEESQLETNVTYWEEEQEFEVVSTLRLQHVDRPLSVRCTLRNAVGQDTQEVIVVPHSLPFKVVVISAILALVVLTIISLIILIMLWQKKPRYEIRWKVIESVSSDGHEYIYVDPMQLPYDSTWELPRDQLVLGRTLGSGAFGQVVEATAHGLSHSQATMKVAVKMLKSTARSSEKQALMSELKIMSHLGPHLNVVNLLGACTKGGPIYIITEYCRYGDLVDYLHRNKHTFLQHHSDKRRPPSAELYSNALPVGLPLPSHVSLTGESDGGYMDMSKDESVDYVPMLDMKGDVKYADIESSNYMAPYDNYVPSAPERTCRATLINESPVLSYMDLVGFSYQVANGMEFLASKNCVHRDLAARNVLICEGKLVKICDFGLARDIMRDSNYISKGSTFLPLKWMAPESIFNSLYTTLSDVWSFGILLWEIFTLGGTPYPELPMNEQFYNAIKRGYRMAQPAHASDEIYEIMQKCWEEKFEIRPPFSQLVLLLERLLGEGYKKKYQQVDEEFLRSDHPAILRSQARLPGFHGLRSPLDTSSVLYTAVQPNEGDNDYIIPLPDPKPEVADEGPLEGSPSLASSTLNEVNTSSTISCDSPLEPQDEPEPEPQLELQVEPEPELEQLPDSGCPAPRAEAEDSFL
Assay: PDGF-stimulated receptor phosphorylation in U1242 cells, ELISA
Type: cell-based
Design: U1242 (PDGF-β receptor); host or cells: U1242 MG glioma cells
Settings: 100 ng/ml PDGF-BB; read-out: ELISA P-TYR U1242 IC50

{"columns": ["Compound", "Target Or Test System", "IC50"],
 "data": [
  ["CC(C)CC(O)=C(C#N)C(=O)Nc1ccc(C(F)(F)F)cc1", "PDGFR (Homo sapiens, UniProt P09619)", "160 µM"],
  ["c1ccc(-c2cnc3cc4ccccc4cc3n2)cc1", "PDGFR (Homo sapiens, UniProt P09619)", "1 µM"],
  ["N#CC(=Cc1ccc(O)c(O)c1)c1[nH]nc(N)c1C#N", "PDGFR (Homo sapiens, UniProt P09619)", "70 µM"],
  ["COc1ccccc1NC(=O)C(=O)NN=Cc1ccc(O)c(O)c1", "PDGFR (Homo sapiens, UniProt P09619)", "> 100 µM"],
  ["CN(C)c1ccc(NC(=O)C(=O)NN=Cc2ccc(O)c(O)c2)cc1", "PDGFR (Homo sapiens, UniProt P09619)", "45 µM"],
  ["N#CC(C(=O)Nc1ccc(C(F)(F)F)cc1)=C(O)c1c(F)c(F)c(F)c(F)c1F", "PDGFR (Homo sapiens, UniProt P09619)", "120 µM"],
  ["c1csc(-c2cnc3ccccc3n2)c1", "PDGFR (Homo sapiens, UniProt P09619)", "100 µM"],
  ["O=C(NN=Cc1ccccc1O)C(=O)Nc1cccc(O)c1", "PDGFR (Homo sapiens, UniProt P09619)", "180 µM"],
  ["CCOc1ccccc1NC(=O)C(=O)NN=Cc1ccc(O)c(O)c1", "PDGFR (Homo sapiens, UniProt P09619)", "100 µM"],
  ["O=C(c1ccccc1)c1ccc2ncc(-c3ccccc3)nc2c1", "PDGFR (Homo sapiens, UniProt P09619)", "6 µM"],
  ["CC1c2nc3ccccc3c(=O)n2C(c2cccc(O)c2)N1Cc1ccccc1 (stereo not shown)", "PDGFR (Homo sapiens, UniProt P09619)", "30 µM"],
  ["N#CC(C(=O)Nc1ccc(C(F)(F)F)cc1)=C(O)c1ccc(F)cc1", "PDGFR (Homo sapiens, UniProt P09619)", "100 µM"],
  ["CC(NC(=O)C(C#N)=Cc1ccc2[nH]ccc2c1)c1ccccc1 (single isomer, unassigned)", "PDGFR (Homo sapiens, UniProt P09619)", "90 µM"],
  ["O=c1c2ccccc2nc2n1CCOC2=Cc1ccc(O)c(O)c1", "PDGFR (Homo sapiens, UniProt P09619)", "100 µM"],
  ["c1ccc(-c2cnc3ncccc3n2)cc1", "PDGFR (Homo sapiens, UniProt P09619)", "35 µM"],
  ["Cc1oncc1C(=O)Nc1ccc(C(F)(F)F)cc1", "PDGFR (Homo sapiens, UniProt P09619)", "65 µM"],
  ["N#CCCn1cc(C=C(C#N)C(=O)c2ccc(O)c(O)c2)c2ccccc21", "PDGFR (Homo sapiens, UniProt P09619)", "> 100 µM"],
  ["O=C(NN=Cc1ccc(O)cc1)C(=O)Nc1cccc([N+](=O)[O-])c1", "PDGFR (Homo sapiens, UniProt P09619)", "125 µM"],
  ["N#CC(C(=O)Nc1ccc(C(F)(F)F)cc1)=C(O)C1CCCCC1", "PDGFR (Homo sapiens, UniProt P09619)", "180 µM"]
]}
